Molecular target: P-450cam mutant Y96A (Pseudomonas putida, UniProt P00183, Y97A)
Sequence (P00183 2-415 Y97A): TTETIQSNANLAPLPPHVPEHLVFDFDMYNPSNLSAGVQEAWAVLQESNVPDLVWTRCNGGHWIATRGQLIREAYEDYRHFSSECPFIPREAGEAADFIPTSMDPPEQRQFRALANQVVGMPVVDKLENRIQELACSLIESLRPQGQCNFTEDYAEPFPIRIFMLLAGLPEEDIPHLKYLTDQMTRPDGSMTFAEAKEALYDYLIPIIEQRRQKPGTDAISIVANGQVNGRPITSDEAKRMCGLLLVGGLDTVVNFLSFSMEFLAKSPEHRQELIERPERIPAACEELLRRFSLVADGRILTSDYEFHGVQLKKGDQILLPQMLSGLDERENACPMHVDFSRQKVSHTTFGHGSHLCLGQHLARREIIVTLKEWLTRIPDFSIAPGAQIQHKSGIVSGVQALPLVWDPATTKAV
Assay: Substrate binding constant Kapp, method of Sligar
Endpoint Label: pKd
# reply with the number alone; pKd is -log10 of concentration in mol/L

Measured pKd of CC12CCC(CC1=O)C2(C)C (single isomer, unassigned) : 6.22

* * *

Biological target: P450cam Mutant Y96A (Pseudomonas putida, UniProt P00183, C335A/Y97A)
Sequence (P00183 2-415 Y97A/C335A): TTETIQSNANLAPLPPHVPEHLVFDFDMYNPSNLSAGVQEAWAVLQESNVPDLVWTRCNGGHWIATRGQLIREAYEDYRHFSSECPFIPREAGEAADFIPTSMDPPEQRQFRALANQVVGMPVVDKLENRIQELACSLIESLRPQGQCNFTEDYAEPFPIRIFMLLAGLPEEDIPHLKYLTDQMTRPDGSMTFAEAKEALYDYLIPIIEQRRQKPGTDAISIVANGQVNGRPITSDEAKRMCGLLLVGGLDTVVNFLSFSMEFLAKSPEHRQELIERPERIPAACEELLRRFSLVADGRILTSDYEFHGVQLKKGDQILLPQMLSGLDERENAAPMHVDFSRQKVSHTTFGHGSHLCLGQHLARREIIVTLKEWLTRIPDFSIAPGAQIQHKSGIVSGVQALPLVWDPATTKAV
Sequence (P16640 whole entry, further chain): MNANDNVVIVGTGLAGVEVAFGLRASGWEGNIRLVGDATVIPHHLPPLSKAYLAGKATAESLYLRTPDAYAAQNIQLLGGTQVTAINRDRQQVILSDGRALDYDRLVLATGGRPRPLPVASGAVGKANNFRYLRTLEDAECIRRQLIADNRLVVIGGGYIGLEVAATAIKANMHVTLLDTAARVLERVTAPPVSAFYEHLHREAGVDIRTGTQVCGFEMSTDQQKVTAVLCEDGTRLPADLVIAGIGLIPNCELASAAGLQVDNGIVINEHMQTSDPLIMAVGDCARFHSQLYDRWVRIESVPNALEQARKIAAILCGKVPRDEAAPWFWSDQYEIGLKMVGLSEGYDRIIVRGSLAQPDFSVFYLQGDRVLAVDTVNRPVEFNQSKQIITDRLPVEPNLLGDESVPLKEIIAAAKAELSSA
Sequence (P00259 whole entry, further chain): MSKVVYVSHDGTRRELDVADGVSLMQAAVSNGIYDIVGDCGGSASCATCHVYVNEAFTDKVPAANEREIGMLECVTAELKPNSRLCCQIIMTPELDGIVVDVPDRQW
Type: binding, P. putida
Details: -- = no shift, nd = not determined
Listed compounds paired with reported Mutant Y96A ΔSpin high/low
Please give only the number in your answer, with no unit.

Here's what some known entries look like.
c1ccc(C2CCCCC2)cc1: 80
c1ccc(CCc2ccccc2)cc1: 55
O=C(c1ccccc1)C1CCCCC1: 60
CCCCCCC: 60
CCc1ccccc1: 40
c1ccc2ccccc2c1: 15
CC1(C)C(=O)[C@]2(C)CC[C@H]1C2 [(1R)-(-)-Fenchone]: 50

Let's switch to this compound now.
Notebook: "C=Cc1ccccc1" , Mutant Y96A ΔSpin high/low read as 30
